# System: Mycobacterium tuberculosis
# Procedure Details: Antimicrobial activity against wild type Mycobacterium tuberculosis H37Rv assessed as inhibition of microbial growth incubated for 14 days in biotin-deficient GAST medium by broth microdilution assay
# Type: functional
# Condition Set: 336 h, time 14 day
Reported Endpoint: MIC50

The following compounds have reported results that may help.
Nc1ncnc2c1ncn2[C@@H]1O[C@H](Cn2cc(CCCCC[C@@H]3SC[C@@H]4NC(=O)N[C@@H]43)nn2)[C@@H](O)[C@H]1O	> 100 µM
Nc1ncnc2c1ncn2[C@@H]1O[C@H](CNS(=O)(=O)NC(=O)NCCCC[C@@H]2SC[C@@H]3NC(=O)N[C@@H]32)[C@@H](O)[C@H]1O	> 100 µM
Nc1ncnc2c1ncn2[C@@H]1O[C@H](CNS(=O)(=O)[N-]C(=O)NCCC[C@@H]2SC[C@@H]3NC(=O)N[C@@H]32)[C@@H](O)[C@H]1O.[Na+]	20 µM
CC(CCC[C@@H]1SC[C@@H]2NC(=O)N[C@@H]21)C(=O)[N-]S(=O)(=O)NC[C@H]1O[C@@H](n2cnc3c(N)ncnc32)[C@H](O)[C@@H]1O.[Na+] (stereo partly drawn)	50 µM
Nc1ncnc2c1ncn2[C@@H]1O[C@H](CNS(=O)(=O)NC(=O)NCCCCC[C@@H]2SC[C@@H]3NC(=O)N[C@@H]32)[C@@H](O)[C@H]1O	> 100 µM

Given "C[C@@H]1NC(=O)N[C@@H]1CCCCCC(=O)NS(=O)(=O)NC[C@H]1O[C@@H](n2cnc3c(N)cccc32)[C@H](O)[C@@H]1O" , respond with its MIC50.
> 100 µM

Given "Nc1cccc2c1ncn2[C@@H]1O[C@H](CNS(=O)(=O)NC(=O)CCCC[C@@H]2SC[C@@H]3NC(=O)N[C@@H]32)[C@@H](O)[C@H]1O" , respond with its MIC50.
> 100 µM

Given "Nc1ncnc2c1ncn2[C@@H]1O[C@H](CNS(=O)(=O)[N-]C(=O)CCCC[C@@H]2SC[C@@H]3NC(=O)N[C@@H]32)[C@@H](O)[C@H]1O.[Na+]" , respond with its MIC50.
2.2 µM

---

# Assayed System: Biotin--[acetyl-CoA-carboxylase] ligase (Mycobacterium tuberculosis (strain ATCC 25618 / H37Rv))
# Procedure Details: Binding affinity to Mycobacterium tuberculosis BPL assessed as change in enthalpy by isothermal titration calorimetry
Reported Endpoint: deltaH (kcal/mol)
The response must be a number in kcal/mol with no trailing unit.

The following compounds have reported results that may help.
Nc1ncnc2c1ncn2[C@@H]1O[C@H](Cn2cc(CCCCC[C@@H]3SC[C@@H]4NC(=O)N[C@@H]43)nn2)[C@@H](O)[C@H]1O	-14.2
Nc1ncnc2c1ncn2[C@@H]1O[C@H](CNS(=O)(=O)NCCCCC[C@@H]2SC[C@@H]3NC(=O)N[C@@H]32)[C@@H](O)[C@H]1O	-23.2
Nc1cccc2c1ncn2[C@@H]1O[C@H](CNS(=O)(=O)NC(=O)CCCC[C@@H]2SC[C@@H]3NC(=O)N[C@@H]32)[C@@H](F)[C@H]1O	-13.9
Nc1ncnc2c1ncn2[C@@H]1O[C@H](CNS(=O)(=O)NC(=S)NCCCC[C@@H]2SC[C@@H]3NC(=O)N[C@@H]32)[C@@H](O)[C@H]1O	-14.2
Nc1ncnc2c1ncn2[C@@H]1O[C@H](CNS(=O)(=O)NC(=O)NCCCC[C@@H]2SC[C@@H]3NC(=O)N[C@@H]32)[C@@H](O)[C@H]1O	-11.5

# context switch: different compound, same deltaH
Given "Nc1cccc2c1ncn2[C@@H]1O[C@H](CNS(=O)(=O)NC(=O)CCCC[C@@H]2SC[C@@H]3NC(=O)N[C@@H]32)[C@@H](O)[C@H]1O" , respond with its deltaH.
-13.9

---

# Procedure Details: AUC (0 to 24 hrs) in female CD-1 mouse at 5 mg/kg, iv administered […] measured after 24 hrs by LC-MS/MS analysis
# Assay type: ADME, organism-based
# Condition Set: in vivo
Reported Endpoint: AUC(0-t) at 24 h

The following compounds have reported results that may help.
Nc1ncnc2c1ncn2[C@@H]1O[C@H](CNS(=O)(=O)[N-]C(=O)CCCC[C@@H]2SC[C@@H]3NC(=O)N[C@@H]32)[C@@H](O)[C@H]1O.[Na+]	1.45 µg·h/mL
CC(CCC[C@@H]1SC[C@@H]2NC(=O)N[C@@H]21)C(=O)[N-]S(=O)(=O)NC[C@H]1O[C@@H](n2cnc3c(N)ncnc32)[C@H](O)[C@@H]1O.[Na+] (stereo partly drawn)	8.64 µg·h/mL

# context switch: different compound, same AUC(0-t) at 24 h
Given "Nc1ncnc2c1ncn2[C@@H]1O[C@H](CNS(=O)(=O)[N-]C(=O)NCCC[C@@H]2SC[C@@H]3NC(=O)N[C@@H]32)[C@@H](O)[C@H]1O.[Na+]" , respond with its AUC(0-t) at 24 h.
11.2 µg·h/mL

---

# Procedure Details: Clearance in female CD-1 mouse at 10 mg/kg, iv administered […] measured after 24 hrs by LC-MS/MS analysis
# Format: ADME, organism-based
# Condition Set: in vivo
Reported Endpoint: clearance (mL/min/kg)
The response must be a number in mL/min/kg with no trailing unit.

Given CC(=O)NC[C@H]1CN(c2ccc(N3CCOCC3)c(F)c2)C(=O)O1 [LINEZOLID] , respond with its clearance.
16.3

---

Form field: pKd (one value per entry).
# Assayed System: Biotin--[acetyl-CoA-carboxylase] ligase (Mycobacterium tuberculosis (strain ATCC 25618 / H37Rv), UniProt I6YFP0)
# Sequence (I6YFP0 whole entry): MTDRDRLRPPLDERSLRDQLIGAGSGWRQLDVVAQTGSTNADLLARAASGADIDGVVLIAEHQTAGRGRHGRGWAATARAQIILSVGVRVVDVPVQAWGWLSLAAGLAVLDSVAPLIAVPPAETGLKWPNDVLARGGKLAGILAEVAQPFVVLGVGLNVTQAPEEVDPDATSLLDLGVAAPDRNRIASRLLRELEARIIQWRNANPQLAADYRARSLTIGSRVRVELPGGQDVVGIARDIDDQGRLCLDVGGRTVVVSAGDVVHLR
# Procedure Details: Binding affinity to Mycobacterium tuberculosis BPL assessed as dissociation constant by isothermal titration calorimetry
// scale note: pKd = -log10(conc_M); give the bare number

Nc1cccc2c1ncn2[C@@H]1O[C@H](CNS(=O)(=O)NC(=O)CCCC[C@@H]2SC[C@@H]3NC(=O)N[C@@H]32)[C@@H](O)[C@H]1O	6.66

Given "Nc1ncnc2c1ncn2[C@@H]1O[C@H](CNS(=O)(=O)NC(=O)NCCCCC[C@@H]2SC[C@@H]3NC(=O)N[C@@H]32)[C@@H](O)[C@H]1O" , respond with its pKd.
6.96

Given "Nc1cccc2c1ncn2[C@@H]1O[C@H](CNS(=O)(=O)NC(=O)CCCC[C@@H]2SC[C@@H]3NC(=O)N[C@@H]32)[C@@H](F)[C@H]1O" , respond with its pKd.
6.64

Given "Nc1ncnc2c1ncn2[C@@H]1O[C@H](Cn2cc(CCCCC[C@@H]3SC[C@@H]4NC(=O)N[C@@H]43)nn2)[C@@H](O)[C@H]1O" , respond with its pKd.
7.21

Given "Nc1ncnc2c1ncn2[C@@H]1O[C@H](CNS(=O)(=O)NC(=S)NCCCC[C@@H]2SC[C@@H]3NC(=O)N[C@@H]32)[C@@H](O)[C@H]1O" , respond with its pKd.
7.22

Given "Nc1ncnc2c1ncn2[C@@H]1O[C@H](CNS(=O)(=O)NC(=O)NCCCC[C@@H]2SC[C@@H]3NC(=O)N[C@@H]32)[C@@H](O)[C@H]1O" , respond with its pKd.
7.26

Given CC(CCC[C@@H]1SC[C@@H]2NC(=O)N[C@@H]21)C(=O)[N-]S(=O)(=O)NC[C@H]1O[C@@H](n2cnc3c(N)ncnc32)[C@H](O)[C@@H]1O.[Na+] (stereo partly drawn) , respond with its pKd.
7.66

Given "Nc1cccc2c1ncn2CCCCNS(=O)(=O)NC(=O)CCCC[C@@H]1SC[C@@H]2NC(=O)N[C@@H]21" , respond with its pKd.
6.66

---

# Assayed System: Biotin--[acetyl-CoA-carboxylase] ligase (Mycobacterium tuberculosis (strain ATCC 25618 / H37Rv)) (UniProt I6YFP0)
# Procedure Details: Binding affinity to Mycobacterium tuberculosis BPL assessed as change in entropy by isothermal titration calorimetry
Quick rule for you: TdeltaS under 4 kcal/mol gets rule met, anything else gets rule not met.

Solved cases below.
Nc1cccc2c1ncn2[C@@H]1O[C@H](CNS(=O)(=O)NC(=O)CCCC[C@@H]2SC[C@@H]3NC(=O)N[C@@H]32)[C@@H](F)[C@H]1O	rule not met
Nc1ncnc2c1ncn2[C@@H]1O[C@H](CNS(=O)(=O)NCCCCC[C@@H]2SC[C@@H]3NC(=O)N[C@@H]32)[C@@H](O)[C@H]1O	rule not met
Nc1ncnc2c1ncn2[C@@H]1O[C@H](CNS(=O)(=O)NC(=O)NCCCC[C@@H]2SC[C@@H]3NC(=O)N[C@@H]32)[C@@H](O)[C@H]1O	rule met
Nc1cccc2c1ncn2CCCCNS(=O)(=O)NC(=O)CCCC[C@@H]1SC[C@@H]2NC(=O)N[C@@H]21	rule met
Nc1ncnc2c1ncn2[C@@H]1O[C@H](CNS(=O)(=O)[N-]C(=O)CCCC[C@@H]2SC[C@@H]3NC(=O)N[C@@H]32)[C@@H](O)[C@H]1O.[Na+]	rule not met
Nc1ncnc2c1ncn2[C@@H]1O[C@H](Cn2cc(CCCCC[C@@H]3SC[C@@H]4NC(=O)N[C@@H]43)nn2)[C@@H](O)[C@H]1O	rule not met

# evaluate next
Please determine if "CN(C(=O)CCCC[C@@H]1SC[C@@H]2NC(=O)N[C@@H]21)S(=O)(=O)NC[C@H]1O[C@@H](n2cnc3c(N)ncnc32)[C@H](O)[C@@H]1O" is below 4 kcal/mol in terms of TdeltaS.
rule met

meta.source: ChEMBL document CHEMBL6153072
